# Test system: Leishmania donovani axenic amastigote parasites
# Protocol summary: Leishmania donovani axenic amastigote proliferation assay (Cell TiterGlo luminescence, 2 day incubation)
# Type: cell-based
# Recorded conditions: Leishmania donovani, L. donovani axenic amastigotes; read-out: L. donovani amastigotes EC50
pEC50: −log10 of the molar value.
Where pEC50 equals or exceeds 6, the correct label is criterion met; where it does not, the label is criterion not met.

INSERT INTO measurements (compound, group) VALUES
  ('Cc1nc(C)c(C(=O)Nc2ccc(F)c(-c3cn4cc(-c5ncccc5C)cnc4n3)c2)o1 [Compound 453]', 'criterion met'),
  ('Cc1nc(C)c(C(=O)Nc2ccc(F)c(-c3cn4cc(-c5ncc(F)cc5F)cnc4n3)c2)o1 [Compound 447]', 'criterion met'),
  ('COc1cnc2nc(-c3cc(NC(=O)N4CCCC4)ccc3F)cn2c1 [Compound 536]', 'criterion met'),
  ('Cc1nc(C)c(C(=O)Nc2ccc(F)c(-c3cn4cc(OCc5ccccn5)cnc4n3)c2)o1 [Compound 611]', 'criterion met');

In plain terms: is recorded pEC50 at least 6 for Cc1nc(C)c(C(=O)Nc2ccc(F)c(-c3cn4cc(NCc5c[nH]cn5)cnc4n3)c2)o1 [Compound 480] ?
criterion not met

---

Parameter log10(EC50): see the listing below.
# Tested on: Trypanosoma brucei Lister 427 strain, bloodstream form
# Protocol summary: Assay for proliferation of kinetoplastid parasite Trypanosoma brucei (Cell Titer Glo, 48 hours)
# Type: cell-based
# Recorded conditions: Trypanosoma brucei, T. brucei Lister 427 bloodstream form; read-out: T. brucei EC50
Remember, log10 of EC50, in nM.

// solved cases for log10(EC50) follow
INSERT INTO results (compound, result_value) VALUES
  ('CC(C)Nc1cnc2nc(-c3cc(NC(=O)N4CC(F)C4)ccc3F)cn2c1 [Compound 592]', 1.72),
  ('CC(C)OC(=O)Nc1ccc(F)c(-c2cn3cc(C(C)C)cnc3n2)c1 [Compound 414]', 2.12),
  ('Cc1nc(C)c(C(=O)Nc2ccc(F)c(-c3cn4cc(-c5cccc(C(N)=O)n5)cnc4n3)c2)o1 [Compound 433]', 2.69),
  ('CCc1cnc2nc(-c3cc(NC(=O)c4oc(C)nc4C)ccc3F)cn2c1 [Compound 423]', 1.54),
  ('Cc1ncc(C(=O)Nc2ccc(F)c(-c3cn4cc(C5CCOCC5)cnc4n3)c2)o1 [Compound 424]', 1.73);

Consider the compound CC(C)OC(=O)N(C)c1cnc2nc(-c3cc(NC(=O)c4ccco4)ccc3Cl)cn2c1 [Compound 561] and give its measured log10(EC50).
2.46

Returns the measured log10(EC50) for the input compound. Input: Cc1cccnc1-c1cnc2nc(-c3cc(NC(=O)N4CC[C@@H](F)C4)ccc3F)cn2c1 [Compound 410]
1.23

---

# System: L. donovani HU3 strain in mouse peritoneal macrophages
# Protocol summary: Assay for proliferation of Leishmania parasites in infected mouse peritoneal macrophages (SybrGreen staining, high-content imaging, 5 days)
# Assay type: cell-based, Leishmania donovani
# Recorded conditions: Leishmania donovani, Peritoneal macrophage, L. donovani in mouse peritoneal macrophages, inhibition of proliferation; read-out: L. donovani Macrophage EC50
pEC50: −log10 of the molar value.
Each entry belongs to exactly one class, chosen by where its pEC50 falls: group A = under 5, group B = from 5 up to 6, group C = 6 and over

INSERT INTO results (compound, target_or_test_system, group) VALUES
  ('Cc1nc(C)c(C(=O)Nc2cccc(-c3cn4cc(-c5ccccc5)cnc4n3)c2)o1 [Compound 336]', 'L. donovani HU3 strain in mouse peritoneal macrophages', 'group C'),
  ('Cc1nc(C)c(C(=O)Nc2ccc(F)c(-c3cn4cc(NC(=O)[C@H]5[C@@H](N)[C@@H]6C=C[C@H]5C6)cnc4n3)c2)o1 [Compound 181]', 'L. donovani HU3 strain in mouse peritoneal macrophages', 'group A'),
  ('CNc1cnc2nc(-c3cc(NC(=O)c4oc(C)nc4C)ccc3F)cn2c1 [Compound 212]', 'L. donovani HU3 strain in mouse peritoneal macrophages', 'group B'),
  ('O=C(Nc1ccc(Cl)c(-c2cn3cc(-c4ccsc4)cnc3n2)c1)N1CCCC1 [Compound 28]', 'L. donovani HU3 strain in mouse peritoneal macrophages', 'group C'),
  ('O=C(Nc1ccc(F)c(-c2cn3cc(C4=CCOCC4)cnc3n2)c1)N1CC(F)(F)C1 [Compound 320]', 'L. donovani HU3 strain in mouse peritoneal macrophages', 'group C');

Then there is this compound:
GET /class?item= Cc1nc(C)c(C(=O)Nc2ccc(F)c(-c3cn4cc(NC(=O)OCCF)cnc4n3)c2)o1 [Compound 307]
group C

---

Items are presented alongside their recorded EC50.
# Test system: Leishmania donovani axenic amastigote parasites
# Protocol summary: Leishmania donovani axenic amastigote proliferation assay (Cell TiterGlo luminescence, 2 day incubation)
# Format: cell-based
# Recorded conditions: Leishmania donovani, L. donovani axenic amastigotes; read-out: L. donovani amastigotes EC50
Hi! Could you send only the number? It should be in nM, unit omitted.

Please review the entries below; each comes with its answer.
INSERT INTO results (input_smiles, target_or_test_system, endpoint, result_value) VALUES
  ('CC(=O)Nc1ccc(F)c(-c2cn3cc(NC(=O)OC(C)(C)C)cnc3n2)c1', 'Leishmania donovani axenic amastigote parasites', 'EC50', 7230),
  ('Cc1nc(C)c(C(=O)Nc2ccc(F)c(-c3cn4cc(-c5cnn(C6CCN(C(=O)OC(C)(C)C)CC6)c5)cnc4n3)c2)o1', 'Leishmania donovani axenic amastigote parasites', 'EC50', 95),
  ('CC(C)OC(=O)N(C)c1cnc2nc(-c3cc(NC(=O)c4ccc(Cl)o4)ccc3F)cn2c1', 'Leishmania donovani axenic amastigote parasites', 'EC50', 176),
  ('Cc1nc(C)c(C(=O)Nc2ccc(F)c(-c3cn4cc(CC(C)(C)C)cnc4n3)c2)o1', 'Leishmania donovani axenic amastigote parasites', 'EC50', 28),
  ('CC(C)(C)OC(=O)N[C@H]1CC[C@H](CNc2cnc3nc(-c4cc(NC(=O)N5CCCC5)ccc4F)cn3c2)CC1', 'Leishmania donovani axenic amastigote parasites', 'EC50', 751),
  ('CC(C)OC(=O)N(C)c1cnc2nc(-c3cc(N(C)C(=O)c4ccc(Cl)o4)ccc3F)cn2c1', 'Leishmania donovani axenic amastigote parasites', 'EC50', 11000);

Lab note: need EC50 with Leishmania donovani axenic amastigote parasites for entry Cc1nc(C)c(C(=O)Nc2ccc(F)c(-c3cn4cc(-c5cccc(F)n5)cnc4n3)c2)o1 , please look it up.
107

Reported EC50 for Leishmania donovani axenic amastigote parasites, given C=C(C)c1cnc2nc(-c3cc(NC(=O)c4oc(C)nc4C)ccc3F)cn2c1 ?
124

Tell me reported EC50 for CNc1ccc(-c2cnc3nc(-c4cc(NC(=O)c5oc(C)nc5C)ccc4F)cn3c2)cc1 , tested with Leishmania donovani axenic amastigote parasites.
103

Requested read-out EC50, target or system Leishmania donovani axenic amastigote parasites, entry Cc1nc(C)c(C(=O)Nc2ccc(F)c(-c3cn4cc(NC5=N[C@H]6CCCC[C@@H]6O5)cnc4n3)c2)o1
1600

Form: Entry = O=C(Nc1ccc(Cl)c(-c2cn3cc(-c4ccc(OC5CCNCC5)cc4)cnc3n2)c1)N1CCCC1 | System = Leishmania donovani axenic amastigote parasites | EC50 = ____
744

What measured EC50 is associated with Cc1nc(C)c(C(=O)Nc2ccc(F)c(-c3cn4cc(C5=CC(C)(C)OC(C)(C)C5)cnc4n3)c2)o1 on Leishmania donovani axenic amastigote parasites?
528

Which measured EC50 belongs to NNC(=O)Nc1cnc2nc(-c3cc(NC(=O)N4CCCC4)ccc3F)cn2c1 , tested on Leishmania donovani axenic amastigote parasites?
4680

---

# Test system: L. donovani HU3 strain in mouse peritoneal macrophages
# Protocol summary: Assay for proliferation of Leishmania parasites in infected mouse peritoneal macrophages (SybrGreen staining, high-content imaging, 5 days)
# Type: cell-based, Leishmania donovani
# Recorded conditions: Leishmania donovani, Peritoneal macrophage, L. donovani in mouse peritoneal macrophages, inhibition of proliferation; read-out: L. donovani Macrophage EC50
Endpoint: log10(EC50) (log10 of the value in µM)
Scale: log10; quantity: EC50; unit before log: µM

Here are 10 molecules together with their reported answers.
INSERT INTO measurements (molecule, endpoint, result_value) VALUES
  ('Cc1nc(C(=O)Nc2cnc3nc(-c4cc(NC(=O)c5oc(C)nc5C)ccc4F)cn3c2)c(C)o1', 'log10(EC50)', -0.27),
  ('Cc1nc(C)c(C(=O)Nc2ccc(F)c(-c3cn4cc(NS(=O)(=O)C(C)C)cnc4n3)c2)o1', 'log10(EC50)', 1.28),
  ('O=C(Nc1ccc(F)c(-c2cn3cc(C(F)(F)F)cnc3n2)c1)N1CC[C@H](F)C1', 'log10(EC50)', -0.65),
  ('Cc1nc(C)c(C(=O)Nc2ccc(F)c(-c3cn4cc(NC(=O)C5CCCO5)cnc4n3)c2)o1 (stereo not shown)', 'log10(EC50)', -0.21),
  ('Cc1nc(C)c(C(=O)Nc2ccc(F)c(-c3cn4cc(NC(=O)c5ccc(CN(C)C)cc5)cnc4n3)c2)o1', 'log10(EC50)', 1.19),
  ('Cc1ncoc1C(=O)Nc1ccc(F)c(-c2cn3cc(NC(=O)OC(C)C)cnc3n2)c1', 'log10(EC50)', 0.63),
  ('CON(C)C(=O)Nc1ccc(F)c(-c2cn3cc(NC(=O)OC(C)C)cnc3n2)c1', 'log10(EC50)', 0.03),
  ('CC(C)OC(=O)Nc1cnc2nc(-c3cc(NC(=O)/C=C/CN(C)C)ccc3F)cn2c1', 'log10(EC50)', 0.99),
  ('Cc1ncc(C(=O)Nc2ccc(F)c(-c3cn4cc(-c5ccccn5)cnc4n3)c2)o1', 'log10(EC50)', -1.80),
  ('CC1(C(=O)Nc2cnc3nc(-c4cc(NC(=O)N5CCCC5)ccc4F)cn3c2)CCCCO1 (stereo not shown)', 'log10(EC50)', 0.15);

Can you look up log10(EC50) on L. donovani HU3 strain in mouse peritoneal macrophages for CN(C)C(=O)Nc1ccc(F)c(-c2cn3cc(-c4ccccc4)cnc3n2)c1 ?
-0.56

What reported log10(EC50) corresponds to CC(C)OC(=O)Nc1cnc2nc(-c3cc(NC(=O)N4CCC4)ccc3Cl)cn2c1 on L. donovani HU3 strain in mouse peritoneal macrophages?
0.03

These data points were gathered from patent US20160045505A1.
